# target under test: T1, Macaca fascicularis CD276 (Macaca fascicularis)
# T1 construct: whole, on cells; also called cynomolgus monkey CD276; cynoCD276
# assay summary: FACS on CHO-S-cynoCD276 cells

binder | FACS MFI
10-B9-D10-A12 (antibody, V domains shown, mouse monoclonal antibody (hybridoma)) VH: EVQLQESGPELVRPGVSVKISCKGSGYTFTDYTMHWVKLSHAKSLEWIGVISTYYGNTNYNQKFKGKATLTVDKSSSTAYMELARLTSEDSAIYYCARASYGSGYGPYYWYFDVWGAGTTVTVSS VL: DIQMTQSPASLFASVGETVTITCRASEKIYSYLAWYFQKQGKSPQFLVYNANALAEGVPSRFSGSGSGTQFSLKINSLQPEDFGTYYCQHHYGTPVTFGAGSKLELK | 10100
20-F8-B5-G2 (antibody, V domains shown, mouse monoclonal antibody (hybridoma)) VH: EVQLQESGPSLVKPSQTLSLTCSVTGDSITSAYWNWIRKFPGNKLEYMGYISNSGSTYYNPSLKSRISITRDTSKNQYYLQLNSVTTEDTGTYYCVRGERYYGYGAYWGQGTLVTVSA VL: DIVMTQATPSVPVTPGESISISCRSSKSLLHSNGNTYLYWFLQRPGQSPQLLIYRMSNLASGVPDRFSGSGSGTAFTLRISRVEAEDVGVYYCMQHLEYPFTFGAGTKLELK | 51100
28-G2-E6-B10 (antibody, V domains shown, mouse monoclonal antibody (hybridoma)) VH: QVQLQQPGAELVKPGASVKLSCKASGYTFTSYWMHWVKQRPGQGLEWIGMIHPNSDTTDYNEKFKTKATLTVDKSSSTAYMQLSSLTSEDSAVFYCARGGLGPHYFVYWGQGTTLTVSS VL: QAVVTQESALTTSPGGTVILTCRSSTGAVTTSNYASWVQEKPDHLFTGLIGGTSNRAPGVPVRFSGSLIGDKAALTITGAQTEDDAMYFCALWYSPHYVFGGGTKVTVL | 40800
